The reported measurements were obtained from ChEMBL document CHEMBL4138299.

Below is a list of entries, each paired with its recorded CC50 at 120 h value.
Experiment: Cytotoxicity against human Hep2 cells after 5 days by CCK8 assay
Details: HEp-2 cells

- compound: "Cc1nn(Cc2nc3ccccc3n2CCCCO)c2ccccc12"
  CC50 at 120 h: "> 100 µM"
- compound: "Cc1nc(=O)n(Cc2nc3ccccc3n2CCCCO)c2ccccc12"
  CC50 at 120 h: "> 100 µM"
- compound: "CN1CCOC2(C1)C(=O)N(Cc1nc3cc(Br)ccc3n1CCCCO)c1ccccc12 (centres undefined)"
  CC50 at 120 h: "> 100 µM"
- compound: "CC1CC(=O)N(Cc2nc3ccccc3n2CCCCO)c2ccccc2N1 (centres undefined)"
  CC50 at 120 h: "> 100 µM"
- compound: "O=C1N(Cc2nc3cc(Br)ccc3n2CCCCO)c2ccccc2C12CCOCC2"
  CC50 at 120 h: "> 100 µM"
- compound: "NCc1ccc2c(c1)nc(CN1C(=O)C3(CC3)c3ccccc31)n2CCCCO"
  CC50 at 120 h: "> 100 µM"
- compound: "O=C1N(Cc2nc3cc(Br)ccc3n2CCCCO)c2ccccc2C12CSC2"
  CC50 at 120 h: "> 100 µM"
- compound: "O=C1NC(=O)C2(N1)C(=O)N(Cc1nc3cc(Br)ccc3n1CCCCO)c1ccccc12 (centres undefined)"
  CC50 at 120 h: "> 100 µM"
- compound: "O=C1N(Cc2nc3cc(Cl)ccc3n2CCCCO)c2ccccc2C12CC2"
  CC50 at 120 h: "> 100 µM"
- compound: "CC(C)OC(=O)N1CCC2(C1)C(=O)N(Cc1nc3cc(Br)ccc3n1CCCCO)c1ccccc12 (centres undefined)"
  CC50 at 120 h: "> 100 µM"
- compound: "O=C1N(Cc2nc3ccccc3n2CCCCO)c2cc(F)ccc2C12CC2"
  CC50 at 120 h: "> 100 µM"
- compound: "OCCCCn1c(Cn2c3c(c4ccccc42)CCNC3)nc2ccccc21"
  CC50 at 120 h: "> 100 µM"
- compound: "O=C1N(Cc2nc3cc(C(F)(F)F)ccc3n2CCCCO)c2ccccc2C12CC2"
  CC50 at 120 h: "> 100 µM"
- compound: "OCCCCn1c(Cn2ncc3ccncc32)nc2ccccc21"
  CC50 at 120 h: "> 100 µM"
- compound: "CS(=O)(=O)N1CC2(C1)C(=O)N(Cc1nc3cc(Br)ccc3n1CCCCO)c1ccccc12"
  CC50 at 120 h: "> 100 µM"
- compound: "CN1CC2(C1)C(=O)N(Cc1nc3cc(Br)ccc3n1CCCCO)c1ccccc12"
  CC50 at 120 h: "> 100 µM"
- compound: "O=C1N(Cc2nc3ccccc3n2CCCCO)c2cnccc2C12CC2"
  CC50 at 120 h: "> 100 µM"
- compound: "Cc1ccc2c(c1)nc(CN1C(=O)C3(CC3)c3ccccc31)n2CCCCO"
  CC50 at 120 h: "> 100 µM"
- compound: "Cc1nn(Cc2nc3ccccc3n2CCCCO)c2c1CCCC2"
  CC50 at 120 h: "> 100 µM"
- compound: "O=c1oc2ccccc2n1Cc1nc2ccccc2n1CCCCO"
  CC50 at 120 h: "> 100 µM"
- compound: "O=C1N(Cc2nc3cc(Br)ccc3n2CCCCO)c2ccccc2C12CNC2"
  CC50 at 120 h: "> 100 µM"
- compound: "O=C1N(Cc2nc3cc(Br)ccc3n2CCCCO)c2ccccc2C12CCN(C1COC1)CC2"
  CC50 at 120 h: "> 100 µM"
- compound: "O=C1N(Cc2nc3ccccc3n2CCCCO)c2ccccc2C12CC2"
  CC50 at 120 h: "> 100 µM"
- compound: "OCCCCn1c(Cn2ncc3ccccc32)nc2ccccc21"
  CC50 at 120 h: "> 100 µM"
- compound: "CN1CCC2(CC1)C(=O)N(Cc1nc3cc(Br)ccc3n1CCCCO)c1ccccc12"
  CC50 at 120 h: "> 100 µM"
- compound: "OCCCCn1c(Cn2c(C(F)(F)F)nc3ccccc32)nc2ccccc21"
  CC50 at 120 h: "> 100 µM"
- compound: "O=C1N(Cc2nc3cc(Br)ccc3n2CCCCO)c2ccccc2C12CCOC2 (centres undefined)"
  CC50 at 120 h: "> 100 µM"
- compound: "OCCCCn1c(Cn2ccc3ccncc32)nc2ccccc21"
  CC50 at 120 h: "> 100 µM"
- compound: "OCCCCn1c(Cn2c(-c3cscn3)nc3ccccc32)nc2ccccc21"
  CC50 at 120 h: "> 100 µM"
- compound: "CS(=O)(=O)N1CCC2(C1)C(=O)N(Cc1nc3cc(Br)ccc3n1CCCCO)c1ccccc12 (centres undefined)"
  CC50 at 120 h: "> 100 µM"
- compound: "Cc1c2c(nn1Cc1nc3ccccc3n1CCCCO)CCCC2"
  CC50 at 120 h: "> 100 µM"
- compound: "N#Cc1ccc2c(c1)nc(CN1C(=O)C3(CC3)c3ccccc31)n2CCCCO"
  CC50 at 120 h: "> 100 µM"
- compound: "CC1(C)C(=O)N(Cc2nc3ccccc3n2CCCCO)c2ccccc21"
  CC50 at 120 h: "> 100 µM"
- compound: "O=C1N(Cc2nc3cc(Br)ccc3n2CCCCO)c2ccccc2C12CS(=O)(=O)C2"
  CC50 at 120 h: "> 100 µM"
